Provenance of the data: ChEMBL document CHEMBL1909046

Biological target: Alpha-1B adrenergic receptor (Rattus norvegicus)
Sequence (P15823 whole entry): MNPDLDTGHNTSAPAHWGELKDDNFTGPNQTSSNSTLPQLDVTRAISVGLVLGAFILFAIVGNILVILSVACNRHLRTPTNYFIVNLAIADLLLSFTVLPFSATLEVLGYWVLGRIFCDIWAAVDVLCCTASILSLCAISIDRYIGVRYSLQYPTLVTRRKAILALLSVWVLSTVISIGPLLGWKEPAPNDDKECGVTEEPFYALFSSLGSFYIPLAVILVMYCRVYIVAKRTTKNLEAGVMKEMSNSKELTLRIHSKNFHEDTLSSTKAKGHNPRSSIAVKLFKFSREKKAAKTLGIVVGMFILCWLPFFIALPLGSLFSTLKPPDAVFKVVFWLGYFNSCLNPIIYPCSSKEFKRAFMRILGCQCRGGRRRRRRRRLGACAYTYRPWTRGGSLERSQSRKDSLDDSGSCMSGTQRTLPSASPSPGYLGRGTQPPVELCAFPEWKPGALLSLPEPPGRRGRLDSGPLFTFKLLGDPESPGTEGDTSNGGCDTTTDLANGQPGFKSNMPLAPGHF
Assay: DRUGMATRIX: Alpha-1B adrenergic receptor radioligand binding (ligand: prazosin)
Assay type: cell membranes, Wistar, Liver, Membrane
Conditions: Not Active = under 50% inhibition at 10 µM; read-out: IC50
Checkbox rule: IC50 lower than 20 nM = Yes; IC50 not lower than 20 nM = No.

Below are worked cases with known answers.
* COc1cc(N)c(Cl)cc1C(=O)NC1CCN(CCCOc2ccc(F)cc2)CC1OC (stereo not given) [CISAPRIDE] | Yes
* CC[C@H]1CN2CCc3cc(OC)c(OC)cc3[C@@H]2C[C@@H]1C[C@H]1NCCc2cc(OC)c(OC)cc21 | No
* CN(C)CC[C@@H](c1ccc(Cl)cc1)c1ccccn1 | No
* COc1cc2nc(N3CCN(C(=O)C4CCCO4)CC3)nc(N)c2cc1OC (stereo not given) | Yes

Now for another entry.
Qu. I'd appreciate it if you could check whether OC(CCCN1CCCCC1)(c1ccccc1)c1ccccc1 has IC50 smaller than 20 nM.
Ans. No

----------
Target: 5-hydroxytryptamine receptor 1A (Rattus norvegicus, UniProt P19327); further: in other assays of this panel Not Active means under 50% inhibition at 10 µM
Sequence (P19327 whole entry): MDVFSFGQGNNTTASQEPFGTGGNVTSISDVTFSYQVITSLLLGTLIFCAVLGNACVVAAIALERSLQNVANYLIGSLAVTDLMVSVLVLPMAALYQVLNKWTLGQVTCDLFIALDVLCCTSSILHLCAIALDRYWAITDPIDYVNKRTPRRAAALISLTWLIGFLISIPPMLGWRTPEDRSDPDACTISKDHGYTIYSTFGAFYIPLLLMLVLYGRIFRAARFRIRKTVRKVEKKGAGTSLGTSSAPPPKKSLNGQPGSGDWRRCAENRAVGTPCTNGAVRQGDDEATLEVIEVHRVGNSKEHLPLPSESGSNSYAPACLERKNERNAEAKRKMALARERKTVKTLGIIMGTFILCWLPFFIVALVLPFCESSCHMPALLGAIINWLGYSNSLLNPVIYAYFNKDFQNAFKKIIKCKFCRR
Type: cell membranes, CHO-K1, Membrane
Conditions: read-out: Ki
Checkbox rule: Ki lower than 1000 nM = YES; Ki not lower than 1000 nM = NO.

Below are worked cases with known answers.
- CC(C)NCC(O)COc1cccc2[nH]ccc12 (stereo not given): YES
- Fc1ccc(C(c2ccc(F)cc2)N2CCN(C/C=C/c3ccccc3)CC2)cc1: NO
- COc1cc(N)c(Cl)cc1C(=O)NC1CCN(CCCOc2ccc(F)cc2)CC1OC (stereo not given) [CISAPRIDE]: NO
- Cc1cc2c(OCC(CNC(C)(C)C)OC(=O)c3ccccc3)cccc2[nH]1 (stereo not given): YES
- C[C@@H](CO)NC(=O)[C@@H]1C=C2c3cccc4[nH]cc(c34)C[C@H]2N(C)C1: YES
- Clc1ccc(COC(Cn2ccnc2)c2ccc(Cl)cc2Cl)cc1 (stereo not given): NO
- CCCNCC(O)COc1ccccc1C(=O)CCc1ccccc1 (stereo not given): YES
- CO[C@@H]1[C@@H](OC)[C@H](C)[C@@](O)(CC(=O)O)O[C@H]1[C@H](C)[C@H]1O[C@@]2(CC[C@@](C)([C@H]3CC[C@@](C)([C@@H]4O[C@@H]([C@H]5O[C@](C)(O)[C@H](C)C[C@@H]5C)C[C@@H]4O[C@@H]4C[C@H](OC)[C@@H](OC)[C@H](C)O4)O3)O2)C[C@H](O)[C@H]1C: YES
- Brc1c(NC2=NCCN2)ccc2nccnc12: NO

Qu. I'd appreciate it if you could check whether COc1ccc(CCN(C)CCCC(C#N)(c2ccc(OC)c(OC)c2)C(C)C)cc1OC (stereo not given) has Ki smaller than 1000 nM.
Ans. NO

----------
Target: UniProt:P29477
Sequence (P29477 whole entry): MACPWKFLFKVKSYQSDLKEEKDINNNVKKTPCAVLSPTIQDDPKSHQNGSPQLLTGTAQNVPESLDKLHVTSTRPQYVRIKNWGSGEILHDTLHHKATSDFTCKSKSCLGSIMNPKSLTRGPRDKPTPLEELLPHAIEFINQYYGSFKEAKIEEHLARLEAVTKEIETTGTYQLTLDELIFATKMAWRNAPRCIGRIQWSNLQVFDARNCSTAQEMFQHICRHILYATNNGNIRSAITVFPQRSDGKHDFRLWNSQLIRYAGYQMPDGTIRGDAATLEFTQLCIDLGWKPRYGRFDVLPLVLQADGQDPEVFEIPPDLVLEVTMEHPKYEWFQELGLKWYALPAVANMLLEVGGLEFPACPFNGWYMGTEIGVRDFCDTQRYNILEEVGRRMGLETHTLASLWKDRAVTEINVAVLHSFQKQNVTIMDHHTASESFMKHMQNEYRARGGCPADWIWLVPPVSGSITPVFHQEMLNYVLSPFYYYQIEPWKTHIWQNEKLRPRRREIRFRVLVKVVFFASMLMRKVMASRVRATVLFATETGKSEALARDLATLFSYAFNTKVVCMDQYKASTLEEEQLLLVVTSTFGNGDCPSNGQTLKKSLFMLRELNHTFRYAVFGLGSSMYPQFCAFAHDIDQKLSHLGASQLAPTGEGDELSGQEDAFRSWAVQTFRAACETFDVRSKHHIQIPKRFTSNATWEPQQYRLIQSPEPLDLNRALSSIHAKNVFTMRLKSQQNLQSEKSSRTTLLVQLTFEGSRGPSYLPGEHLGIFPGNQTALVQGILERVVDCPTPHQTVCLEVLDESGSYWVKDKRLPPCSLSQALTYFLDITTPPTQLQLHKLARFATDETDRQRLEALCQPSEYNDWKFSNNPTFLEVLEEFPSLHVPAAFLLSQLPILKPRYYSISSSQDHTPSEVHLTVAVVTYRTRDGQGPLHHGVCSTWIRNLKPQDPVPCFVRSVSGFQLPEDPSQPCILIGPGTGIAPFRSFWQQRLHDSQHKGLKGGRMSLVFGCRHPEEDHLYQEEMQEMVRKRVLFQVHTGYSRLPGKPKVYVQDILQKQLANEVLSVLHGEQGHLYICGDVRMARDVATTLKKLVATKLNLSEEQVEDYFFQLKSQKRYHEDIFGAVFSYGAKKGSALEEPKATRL
Parameters: species or system Escherichia coli
property: IC50

Worked cases, IC50 given:
- CCCOc1ccc(C(=O)OCCN(CC)CC)cc1N [PROPARACAINE]: Not Active
- O=C/C=C/c1ccccc1: Not Active
- CC(=O)[C@H]1[C@H](C#N)C[C@H]2[C@@H]3CC=C4C[C@@H](O)CC[C@]4(C)[C@H]3CC[C@@]21C [PREGNENOLONE CARBONITRILE]: Not Active
- CC(=O)O[C@H]1C(=O)[C@@]2(C)[C@H]([C@H](OC(=O)c3ccccc3)[C@]3(O)C[C@H](OC(=O)[C@H](O)[C@@H](NC(=O)c4ccccc4)c4ccccc4)C(C)=C1C3(C)C)[C@]1(OC(C)=O)CO[C@@H]1C[C@@H]2O [PACLITAXEL]: Not Active
- CCCNCC(O)COc1ccccc1C(=O)CCc1ccccc1 (centres undefined) [PROPAFENONE]: Not Active
- COc1ccc(CCN(C)CCCC(C#N)(c2ccc(OC)c(OC)c2)C(C)C)cc1OC (centres undefined): Not Active

Qu. Suppose we examine the molecule CC(=O)[C@@]1(O)CC[C@H]2[C@@H]3CCC4=CC(=O)CC[C@]4(C)[C@H]3CC[C@@]21C [HYDROXYPROGESTERONE] ; what IC50 value has been reported?
Ans. Not Active

Qu. Suppose we examine the molecule O=C(Nc1ccc(Br)cc1)c1cc(Br)cc(Br)c1O [TRIBROMSALAN] ; what IC50 value has been reported?
Ans. Not Active

Qu. Suppose we examine the molecule C[C@@H]1CC[C@@]2(OC1)O[C@H]1[C@@H](O)[C@H]3[C@@H]4CC[C@H]5C[C@@H](O[C@@H]6O[C@H](CO)[C@H](O[C@@H]7O[C@H](CO)C(O)[C@H](O[C@@H]8OC[C@@H](O)[C@H](O)[C@H]8O)[C@H]7O[C@@H]7O[C@H](CO)[C@H](O)[C@H](O[C@@H]8O[C@H](CO)[C@@H](O)[C@H](O)[C@H]8O)[C@H]7O)[C@H](O)[C@H]6O)[C@H](O)C[C@]5(C)[C@H]4CC[C@]3(C)[C@H]1[C@@H]2C (some centres undefined) [DIGITONIN] ; what IC50 value has been reported?
Ans. Not Active
